- Test system: Staphylococcus aureus
- assay_text: Antimicrobial activity against Staphylococcus aureus ATCC 25923 incubated for 18 hrs by agar dilution method
- Type: functional
- details: ATCC 25923, 18 h
Kindly state MIC for each of the entries shown.
Numbers only, in µM.

Consider the worked cases shown below.
compound | unit_abbrev | reported_measurement
CC[C@H](C)[C@H](NC(=O)c1cn(CC)c2nc(C)ccc2c1=O)C(=O)N1CCN(c2cc3c(cc2F)c(=O)c(C(=O)O)cn3C2CC2)CC1 | µM | 1900
CCn1cc(C(=O)O)c(=O)c2cc(F)c(N3CCN(C(=O)CCCNC(=O)c4cn(CC)c5nc(C)ccc5c4=O)CC3)cc21 | µM | 505
CCn1cc(C(=O)O)c(=O)c2cc(F)c(N3CCNCC3)cc21 [NORFLOXACIN] | µM | 1350
CCn1cc(C(=O)N[C@@H](Cc2c[nH]c3ccccc23)C(=O)N2CCN(c3cc4c(cc3F)c(=O)c(C(=O)O)cn4C3CC3)CC2)c(=O)c2cc3c(cc21)OCO3 | µM | 51.3

Each compound below has a recorded value; state its MIC.
1. CCn1cc(C(=O)N[C@@H](Cc2ccccc2)C(=O)N2CCN(c3cc4c(cc3F)c(=O)c(C(=O)O)cn4C3CC3)CC2)c(=O)c2cc3c(cc21)OCO3
2. CCn1cc(C(=O)O)c(=O)c2cc(F)c(N3CCN(C(=O)[C@H](Cc4c[nH]c5ccccc45)NC(=O)c4cn(CC)c5nc(C)ccc5c4=O)CC3)cc21
3. CCn1cc(C(=O)N[C@@H](Cc2c[nH]c3ccccc23)C(=O)N2CCN(c3cc4c(cc3F)c(=O)c(C(=O)O)cn4C3CC3)CC2)c(=O)c2ccc(C)nc21
4. CCn1cc(C(=O)NCCCC(=O)N2CCN(c3cc4c(cc3F)c(=O)c(C(=O)O)cn4C3CC3)CC2)c(=O)c2cc3c(cc21)OCO3

Out:
1. 1730
2. 1740
3. 3.3
4. 1890

// batch mode: one MIC value per listed entry
1. CC[C@H](C)[C@H](NC(=O)c1cn(CC)c2nc(C)ccc2c1=O)C(=O)N1CCN(c2cc3c(cc2F)c(=O)c(C(=O)O)cn3CC)CC1
2. CCn1cc(C(=O)O)c(=O)c2ccc(C)nc21 [NALIDIXIC ACID]
3. CCn1cc(C(=O)O)c(=O)c2cc(F)c(N3CCN(C(=O)CCCNC(=O)c4cn(CC)c5cc6c(cc5c4=O)OCO6)CC3)cc21
4. CCn1cc(C(=O)O)c(=O)c2cc(F)c(N3CCN(C(=O)CCNC(=O)c4cn(CC)c5nc(C)ccc5c4=O)CC3)cc21
5. O=C(O)c1cn(C2CC2)c2cc(N3CCNCC3)c(F)cc2c1=O [CIPROFLOXACIN]
6. CC[C@H](C)[C@H](NC(=O)c1cn(CC)c2cc3c(cc2c1=O)OCO3)C(=O)N1CCN(c2cc3c(cc2F)c(=O)c(C(=O)O)cn3C2CC2)CC1

Out:
1. 1930
2. 3770
3. 482
4. 2070
5. 74.6
6. 454

----------
Assignment: determine reported MIC for the given compounds.
- Test system: Streptococcus pyogenes
- assay_text: Antimicrobial activity against Streptococcus pyogenes ATCC 19615 incubated for 18 hrs by agar dilution method
- Format: functional
- details: ATCC 19615, 18 h
Numbers only, in µM.

The following compounds have reported results that may help.
molecular_string | assay_metric | unit_abbrev | reported_measurement
CC[C@H](C)[C@H](NC(=O)c1cn(CC)c2nc(C)ccc2c1=O)C(=O)N1CCN(c2cc3c(cc2F)c(=O)c(C(=O)O)cn3C2CC2)CC1 | MIC | µM | 1900
CCn1cc(C(=O)NCCCC(=O)N2CCN(c3cc4c(cc3F)c(=O)c(C(=O)O)cn4C3CC3)CC2)c(=O)c2cc3c(cc21)OCO3 | MIC | µM | 1890
CC[C@H](C)[C@H](NC(=O)c1cn(CC)c2nc(C)ccc2c1=O)C(=O)N1CCN(c2cc3c(cc2F)c(=O)c(C(=O)O)cn3CC)CC1 | MIC | µM | 1930

The recorded MIC for CCn1cc(C(=O)O)c(=O)c2cc(F)c(N3CCN(C(=O)CCNC(=O)c4cn(CC)c5nc(C)ccc5c4=O)CC3)cc21 is 2070

----------
- System: Staphylococcus aureus
- assay_text: Antimicrobial activity against Staphylococcus aureus ATCC 25923 incubated for 18 hrs by agar dilution method
- Type: functional
- details: ATCC 25923, 18 h
assay_metric: MIC (µM)
One number for each entry, in µM.

Sample answers from the record:
molecular_string | MIC, µM
CCn1cc(C(=O)N[C@@H](Cc2ccccc2)C(=O)N2CCN(c3cc4c(cc3F)c(=O)c(C(=O)O)cn4C3CC3)CC2)c(=O)c2ccc(C)nc21 | 1800
CCn1cc(C(=O)O)c(=O)c2cc(F)c(N3CCN(C(=O)[C@H](Cc4c[nH]c5ccccc45)NC(=O)c4cn(CC)c5cc6c(cc5c4=O)OCO6)CC3)cc21 | 1670
CCn1cc(C(=O)O)c(=O)c2cc3c(cc21)OCO3 | 3910

Kindly consider the entry below.
Sample CCn1cc(C(=O)O)c(=O)c2cc(F)c(N3CCN(C(=O)CCNC(=O)c4cn(CC)c5cc6c(cc5c4=O)OCO6)CC3)cc21 ; MIC observed: 30.8

----------
- System: Salmonella typhimurium
- assay_text: Antimicrobial activity against Salmonella typhimurium ATCC 19430 incubated for 18 hrs by agar dilution method
- Assay type: functional, Salmonella enterica subsp. enterica serovar Typhimurium
- details: Salmonella enterica, ATCC 19430, 18 h
assay_metric: MIC
Just so you know, I need the unit written after the number.

molecular_string | target | MIC
CCn1cc(C(=O)NCCC(=O)N2CCN(c3cc4c(cc3F)c(=O)c(C(=O)O)cn4C3CC3)CC2)c(=O)c2cc3c(cc21)OCO3 | Salmonella typhimurium | 7.4 µM
CC[C@H](C)[C@H](NC(=O)c1cn(CC)c2nc(C)ccc2c1=O)C(=O)N1CCN(c2cc3c(cc2F)c(=O)c(C(=O)O)cn3C2CC2)CC1 | Salmonella typhimurium | 1900 µM
CCn1cc(C(=O)O)c(=O)c2cc(F)c(N3CCN(C(=O)CCCNC(=O)c4cn(CC)c5nc(C)ccc5c4=O)CC3)cc21 | Salmonella typhimurium | 505 µM

Shift focus to the following entry.
Value of MIC reported for the compound CCn1cc(C(=O)NCCC(=O)N2CCN(c3cc4c(cc3F)c(=O)c(C(=O)O)cn4C3CC3)CC2)c(=O)c2ccc(C)nc21 is 15.7 µM

----------
I'd appreciate it if you could supply MIC values for the items below.
- Test system: Salmonella typhimurium
- assay_text: Antimicrobial activity against Salmonella typhimurium ATCC 19430 incubated for 18 hrs by agar dilution method
- Assay type: functional, Salmonella enterica subsp. enterica serovar Typhimurium
- details: Salmonella enterica, ATCC 19430, 18 h
Give bare numbers, in µM.

Check out these entries, answers already filled in.
molecular_string | target | unit_abbrev | MIC
CCn1cc(C(=O)N[C@@H](Cc2ccccc2)C(=O)N2CCN(c3cc4c(cc3F)c(=O)c(C(=O)O)cn4C3CC3)CC2)c(=O)c2ccc(C)nc21 | Salmonella typhimurium | µM | 1800
CCn1cc(C(=O)O)c(=O)c2cc(F)c(N3CCN(C(=O)[C@H](Cc4c[nH]c5ccccc45)NC(=O)c4cn(CC)c5cc6c(cc5c4=O)OCO6)CC3)cc21 | Salmonella typhimurium | µM | 1670

Respectfully, I request MIC for each entry included below.
1. CCn1cc(C(=O)NCC(=O)N2CCN(c3cc4c(cc3F)c(=O)c(C(=O)O)cn4C3CC3)CC2)c(=O)c2ccc(C)nc21
2. CCn1cc(C(=O)O)c(=O)c2cc(F)c(N3CCN(C(=O)CNC(=O)c4cn(CC)c5cc6c(cc5c4=O)OCO6)CC3)cc21

Out:
1: 64.7; 2: 2020

----------
- Tested on: Staphylococcus aureus
- assay_text: Antimicrobial activity against Staphylococcus aureus ATCC 25923 incubated for 18 hrs by agar dilution method
- Assay type: functional
- details: ATCC 25923, 18 h
assay_metric: MIC (µM)
Numbers only, in µM.

Please review the following examples before continuing.
molecular_string | target | MIC (µM)
CCn1cc(C(=O)NCCC(=O)N2CCN(c3cc4c(cc3F)c(=O)c(C(=O)O)cn4C3CC3)CC2)c(=O)c2cc3c(cc21)OCO3 | Staphylococcus aureus | 1940
CC[C@H](C)[C@H](NC(=O)c1cn(CC)c2cc3c(cc2c1=O)OCO3)C(=O)N1CCN(c2cc3c(cc2F)c(=O)c(C(=O)O)cn3CC)CC1 | Staphylococcus aureus | 1850

Consider the additional molecule presented here.
// recorded MIC for CCn1cc(C(=O)O)c(=O)c2cc(F)c(N3CCN(C(=O)[C@H](Cc4ccccc4)NC(=O)c4cn(CC)c5nc(C)ccc5c4=O)CC3)cc21 : 28.6
